Tested on: Mycobacterium tuberculosis
Assay: Antimycobacterial activity against Mycobacterium tuberculosis H37Rv ATCC 27294 assessed as inhibition of bacterial growth incubated for 18 to 24 hrs by broth dilution method
Type: functional
RECORDED_ENDPOINT: MIC

Cc1ccc(-c2ccn(-c3ccc(NC(=O)Nc4ccc(Cl)c(Cl)c4)cc3)n2)cc1 : > 64 µg/mL
COc1ccc(-c2ccn(-c3ccc(NC(=O)NCc4ccccc4)cc3)n2)cc1 : > 64 µg/mL

In the following, a different compound is considered.
Reported MIC for O=C(Nc1ccc(-n2ccc(-c3ccc(Cl)cc3Cl)n2)cc1)Nc1ccc(Cl)c(Cl)c1 : what is it?
> 64 µg/mL
